The measured values listed here are drawn from ChEMBL document CHEMBL5346924.

Experiment: Metabolic stability in human liver microsomes assessed as intrinsic clearance in the presence of NADPH regenerating system
Assay type: ADME, Microsome
Conditions: read-out: CLH
parameterMeasured: CLint scaled (mL/min/kg)

compound="COc1cc(C(C)O/C(=N\\OC[C@H](O)CO)c2ccc(F)c(F)c2Nc2ccc(I)cc2F)c([N+](=O)[O-])cc1OC (stereo partly specified)" unitannotation=mL/min/kg reportedresult=51.4

---

Tested on: A-375
Assay: Antiproliferative activity against human A-375 cells harboring BRAF V600E mutant assessed as cell growth inhibition preincubated with compound for 1 hrs followed by UV irradiation for 1 min and measured 72 hrs post compound treatment by CellTiter-Glo luminescent assay
Assay type: functional
Conditions: A-375, light or radiation study
parameterMeasured: GI50

compound=CCN(CC)c1ccc2c(CO/C(=N\OC[C@H](O)CO)c3ccc(F)c(F)c3Nc3ccc(I)cc3F)cc(=O)oc2c1 reportedresult="222 nM"
compound=COc1cc(CO/C(=N\OC[C@H](O)CO)c2ccc(F)c(F)c2Nc2ccc(I)cc2F)c([N+](=O)[O-])cc1OC reportedresult="272 nM"
compound="CC(O/C(=N\\OC[C@H](O)CO)c1ccc(F)c(F)c1Nc1ccc(I)cc1F)c1cc2c(cc1[N+](=O)[O-])OCO2 (stereo partly drawn)" reportedresult="28.6 nM"
compound=O=C(NOC[C@H](O)CO)c1ccc(F)c(F)c1Nc1ccc(I)cc1F reportedresult="1.37 nM"
compound=COc1cc(CN(c2ccc(I)cc2F)c2c(C(=O)NOC[C@H](O)CO)ccc(F)c2F)c([N+](=O)[O-])cc1OC reportedresult="9.95 nM"
compound=COc1cc(COCCONC(=O)c2ccc(F)c(F)c2Nc2ccc(I)cc2F)c([N+](=O)[O-])cc1OC reportedresult="43.4 nM"
compound=O=[N+]([O-])c1cc2c(cc1CO/C(=N\OC[C@H](O)CO)c1ccc(F)c(F)c1Nc1ccc(I)cc1F)OCO2 reportedresult="128 nM"
compound="COc1cc(C(C)O/C(=N\\OC[C@H](O)CO)c2ccc(F)c(F)c2Nc2ccc(I)cc2F)c([N+](=O)[O-])cc1OC (stereo partly drawn)" reportedresult="6.29 nM"
